Ref: paper PMC5814829

Biological target: T1, ScPif1p K363A (Saccharomyces cerevisiae, UniProt P07271 237-780, K363A)
T1 sequence: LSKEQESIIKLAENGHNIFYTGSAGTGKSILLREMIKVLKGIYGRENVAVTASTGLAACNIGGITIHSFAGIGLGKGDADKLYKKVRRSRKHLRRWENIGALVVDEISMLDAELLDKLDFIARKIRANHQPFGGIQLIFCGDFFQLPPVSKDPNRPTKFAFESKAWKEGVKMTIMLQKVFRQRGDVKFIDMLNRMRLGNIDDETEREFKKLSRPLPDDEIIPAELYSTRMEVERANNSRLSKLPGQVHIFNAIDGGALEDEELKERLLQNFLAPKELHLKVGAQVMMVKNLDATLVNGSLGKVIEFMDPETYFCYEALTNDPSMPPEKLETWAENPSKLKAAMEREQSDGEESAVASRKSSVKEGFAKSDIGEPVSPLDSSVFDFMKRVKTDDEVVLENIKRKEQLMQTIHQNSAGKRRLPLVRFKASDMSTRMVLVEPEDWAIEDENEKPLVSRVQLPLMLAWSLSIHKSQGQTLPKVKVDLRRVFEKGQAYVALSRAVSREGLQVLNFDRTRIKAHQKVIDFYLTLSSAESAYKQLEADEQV
Assay: fluorescence anisotropy
Quick reference: pKd of the listed items.
Value format note: pKd is -log10 of concentration (mol/L); just state the number.

INSERT INTO measurements (binder, experimental_value) VALUES
  ('GTGTGTGTGGTG (ssDNA) [GR12]', 7.84),
  ('AGGGTGGGTGGGTGGGT (structured_DNA) [F-G417]', 7.36);

Sample dsDNA16bp (dsDNA) DNA 1: CTCTGCTCGACGGATT DNA 2: AATCCGTCGAGCAGAG ; pKd observed: 7.14
